These entries and their values trace back to patent US20250388584A1.

Please respond with reported Emax for every item in the list.
- SUBJECT_OF_TEST: UniProt Q9H3S4
- PROCEDURE_SUMMARY: TPK enzyme activity test
- Format: biochemical
- CONDITION_SET: calculated with the effect of DMSO on TPK enzyme activity as 100%; read-out: Emax
Structures can show the parent of a compound that is named as a salt.
Give bare numbers, in %.

Completed entries (count: 8):
COc1ccc2c(c1)N1CCN(c3ccccc3OC)CC1C(C(=O)NCCN1CCCCC1)C2 (stereo not drawn)
198
Cc1ccc2ncc3c(=O)n(CCCC(=O)N4CCN(c5cccc(Cl)c5Cl)CC4)cnc3c2c1
153
O=C(CCn1cnc2c(oc3ccc(F)cc32)c1=O)N1CCN(c2cccc(C(F)(F)F)c2)CC1
151
Cc1ccc2c(c1)[nH]c1c(=O)n(CCC(=O)N3CCN(c4ccc(Cl)cc4Cl)CC3)cnc12
136
Cc1ccc2c(c1)[nH]c1c(=O)n(CCC(=O)N3CCN(c4cccc(Cl)c4Cl)CC3)cnc12
124
O=C(CCn1cnc2c(oc3ccc(F)cc32)c1=O)N1CCC(O)(c2cccc(C(F)(F)F)c2)CC1
189
Cc1ccc2[nH]c3c(=O)n(CCC(=O)N4CCC(N(C)c5cccc(Cl)c5Cl)CC4)cnc3c2c1
119
Cc1ccc(C)c(N2CCN(C(=O)CCn3cnc4c([nH]c5ccc(C)cc54)c3=O)CC2)c1
167

I have 6 molecules here; please give me Emax for each one.
1. Cc1ccc2[nH]c3c(=O)n(CCC(=O)N4CCN(c5ccc(F)cc5)CC4)cnc3c2c1
2. O=C(CCn1cnc2c([nH]c3ccccc32)c1=O)N1CCN(c2cccc(C(F)(F)F)c2)CC1
3. COC(=O)C1CCCCN1CCCN1c2ccccc2Sc2ccccc21 (stereo not drawn) [Formate salt of 191]
4. O=C1CCc2ccc(OCCCCCCN3c4ccccc4Sc4ccc(C(F)(F)F)cc43)cc2N1
5. Cc1ccc2c(c1)-c1nc(=O)n(CCCC(=O)N3CCC(Cc4ccc(F)cc4)CC3)cc1CO2
6. O=C(CCN1c2ccccc2Sc2ccccc21)NCCN1CCOCC1

A)
1: 123; 2: 139; 3: 131; 4: 129; 5: 157; 6: 168

Q) For the molecule shown here, O=C(CCn1cnc2c([nH]c3ccc(C(F)(F)F)cc32)c1=O)N1CCN(c2cccc(C(F)(F)F)c2)CC1 , give the reported Emax.
A) 208

====

Please respond with reported Emax for every item in the list.
- SUBJECT_OF_TEST: TPK enzyme (Homo sapiens (Human))
- Sequence (Q9H3S4 whole entry): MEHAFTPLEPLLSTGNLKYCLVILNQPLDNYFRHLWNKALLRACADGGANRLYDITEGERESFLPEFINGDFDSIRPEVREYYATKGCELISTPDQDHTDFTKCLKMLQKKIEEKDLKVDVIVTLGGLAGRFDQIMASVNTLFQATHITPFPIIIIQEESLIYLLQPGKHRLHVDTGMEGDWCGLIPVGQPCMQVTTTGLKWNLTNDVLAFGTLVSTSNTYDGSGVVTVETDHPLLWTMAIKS
- PROCEDURE_SUMMARY: TPK enzyme activity test
- Assay type: biochemical
- CONDITION_SET: calculated with the effect of DMSO on TPK enzyme activity as 100%; read-out: Emax
One number for each entry, in %.

Cc1ccc2[nH]c3c(=O)n(CCC(=O)N4CCN(c5cccc(Cl)c5Cl)CC4)cnc3c2c1
159
Cc1ccc2nc3c(=O)n(CCC(=O)N4CCN(c5cccc(C(F)(F)F)c5)CC4)cnc3cc2c1
146
O=C(O)CCC(=O)OCCN1CCN(CCC(=O)N2c3ccccc3Sc3ccc(C(F)(F)F)cc32)CC1
204

I have 4 compounds here; please give me Emax for each one.
1. C[C@H](OC(C)(C)C)[C@@H](NC(=O)OCC1c2ccccc2-c2ccccc21)C(=O)O
2. Cc1ccc2[nH]c3c(=O)n(CCC(=O)NCc4cccc(O)c4)cnc3c2c1
3. Cc1ccc2[nH]c3c(=O)n(CCC(=O)N4CCN(c5ccccc5C(F)(F)F)CC4)cnc3c2c1
4. O=C1CCCCN1CCCN1CCSc2ccc(C(F)(F)F)cc21

A)
[224, 123, 128, 139]

Q) For the compound shown here, O=C1c2ccccc2CN1CCCN1c2ccccc2Sc2ccccc21 , give the reported Emax.
A) 180
